Target: MCH-2 (Homo sapiens)
Sequence (P55212 24-179 limits assumed): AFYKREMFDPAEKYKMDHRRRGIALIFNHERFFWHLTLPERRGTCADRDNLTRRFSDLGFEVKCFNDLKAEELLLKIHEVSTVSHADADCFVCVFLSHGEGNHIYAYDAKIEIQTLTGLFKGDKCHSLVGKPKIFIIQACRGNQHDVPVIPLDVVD
Sequence (P55212 194-293 limits assumed): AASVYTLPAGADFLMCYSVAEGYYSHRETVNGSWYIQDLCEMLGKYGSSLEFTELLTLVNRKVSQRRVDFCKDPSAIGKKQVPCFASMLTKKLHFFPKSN
measure-name: pIC50
Scale note: pIC50 = -log10(concentration in M).

1. O=C1C[C@H](NC(=O)[C@@H]2Cc3cccc4c3N2C(=O)[C@@H](NC(=O)OCc2ccccc2)CC4)C(O)O1 (some centres unmarked) : 4.40

Entry CC(=O)N[C@@H](CC(=O)O)C(=O)N[C@H]1CCc2cccc3c2N(C1=O)[C@H](C(=O)N[C@H]1CC(=O)OC1O)C3 (some centres unmarked) has what pIC50?
5.19

Same lookup for O=C1CC(NC(=O)C2CCc3cccc4c3N2C(=O)C(NC(=O)OCc2ccccc2)CC4)C(O)O1 (mixture of isomers) , please.
4.49

* * *

measure-name: melting point

Consider the reported melting point for these compounds:
1. O=C(O)CCC(=O)N[C@H]1CCc2cccc3c2N(C1=O)[C@H](C(=O)N[C@H]1CC(=O)OC1O)C3 (some centres unmarked) [Example 10] : 145 to 160 °C (dec.)
2. O=C1C[C@H](NC(=O)[C@@H]2Cc3cccc4c3N2C(=O)[C@@H](NC(=O)OCc2ccccc2)CC4)C(O)O1 (some centres unmarked) [Example 3] : 101 to 104 °C
3. O=C(O)C[C@H](NC(=O)OCc1ccccc1)C(=O)N[C@H]1CCc2cccc3c2N(C1=O)[C@H](C(=O)N[C@H]1CC(=O)OC1O)C3 (some centres unmarked) [Example 13] : 140 to 144 °C (dec.)
4. CC(=O)N[C@H]1CCc2cccc3c2N(C1=O)[C@H](C(=O)N[C@H]1CC(=O)OC1O)C3 (some centres unmarked) [Example 19] : 210 to 215 °C (dec.)
5. CC(C)(C)OC(=O)C[C@@H](/C=N/NC(N)=O)NC(=O)[C@@H]1Cc2cccc3c2N1C(=O)[C@@H](NC(=O)c1cccc2ccccc12)CC3 [Example 20] : 103 to 105 °C (dec.)

Entry O=C1C[C@H](NC(=O)[C@@H]2Cc3cccc4c3N2C(=O)[C@@H](NC(=O)c2cccc3ccccc23)CC4)C(O)O1 (some centres unmarked) [Example 22] has what melting point?
202 to 203 °C (dec.)

Moving on to O=C1C[C@H](NC(=O)[C@@H]2Cc3cccc4c3N2C(=O)[C@@H](NC(=O)c2ccccc2)CC4)C(O)O1 (some centres unmarked) [Example 25]
204 to 205 °C (dec.)

What about O=C1CC(NC(=O)C2CCc3cccc4c3N2C(=O)C(NC(=O)OCc2ccccc2)CC4)C(O)O1 (mixture of isomers) [Example 28] ?
120 to 123 °C (dec.)

Please do the same for CC(=O)N[C@@H](CC(=O)O)C(=O)N[C@H]1CCc2cccc3c2N(C1=O)[C@H](C(=O)N[C@H]1CC(=O)OC1O)C3 (some centres unmarked) [Example 7] as well.
160 to 175 °C (dec.)

And O=C(O)C[C@H](NC(=O)[C@@H]1Cc2cccc3c2N1C(=O)[C@@H](NC(=O)OCc1ccccc1)CC3)C(=O)COP(=O)(c1ccccc1)c1ccccc1 [Example 34] ?
109 to 111 °C (dec.)

Please answer likewise for O=C(CCc1ccccc1)N[C@H]1CCc2cccc3c2N(C1=O)[C@H](C(=O)N[C@H]1CC(=O)OC1O)C3 (some centres unmarked) [Example 16]
78 to 81 °C
